Molecular target: T1, human APJ receptor (human, UniProt P35414 1-380)
T1 sequence (looked up): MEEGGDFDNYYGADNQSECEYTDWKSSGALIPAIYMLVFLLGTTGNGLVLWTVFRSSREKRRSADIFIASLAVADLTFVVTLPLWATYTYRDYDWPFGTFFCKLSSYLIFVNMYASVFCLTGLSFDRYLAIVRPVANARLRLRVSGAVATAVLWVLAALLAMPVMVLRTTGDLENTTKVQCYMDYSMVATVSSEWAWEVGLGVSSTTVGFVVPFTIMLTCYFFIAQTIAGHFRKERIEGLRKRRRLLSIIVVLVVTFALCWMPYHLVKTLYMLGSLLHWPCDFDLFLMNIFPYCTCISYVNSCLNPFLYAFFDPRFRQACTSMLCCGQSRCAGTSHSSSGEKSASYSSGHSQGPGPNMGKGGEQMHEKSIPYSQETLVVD
Experiment: cell-based or functional assay
Starred links: 1 amine or outer side, 2 acyl side, 3 side chain; linkers in the order of their positions; H or OH if unused. Non-standard residues stand in square brackets, D forms with d. *: point of attachment. AC4Abu = α-carboxy-4-aminobutyric acid, O=C(C(CCN[*:1])C(=O)[*:3])[*:2]; Oic = O=C(O)[C@@H]1C[C@@H]2CCCC[C@@H]2N1; Phe(4-Cl) = N[C@@H](Cc1ccc(Cl)cc1)C(=O)O; dPhe(4-Cl) = N[C@H](Cc1ccc(Cl)cc1)C(=O)O; Phe(4-F) = N[C@@H](Cc1ccc(F)cc1)C(=O)O; γGlu = O=C(O)[C@H](CCC(=O)[*:2])N[*:1]; NMeR = CN[C@@H](CCCNC(=N)N)C(=O)O; Palmitoyl = CCCCCCCCCCCCCCCC(=O)*; Tridecanoyl = CCCCCCCCCCCCC(=O)*; hArg = N=C(N)NCCCC[C@H](N)C(=O)O; β3hF = N[C@H](CC(=O)O)Cc1ccccc1; Cha = N[C@@H](CC1CCCCC1)C(=O)O; αMeL = CC(C)C[C@](C)(N)C(=O)O; β3hP = O=C(O)C[C@@H]1CCCN1; Pip = O=C(O)[C@@H]1CCCCN1; Nle = CCCC[C@H](N)C(=O)O; Dab = NCC[C@H](N)C(=O)O; Dap = NC[C@H](N)C(=O)O; AEEA = NCCOCCOCC(=O)O; Nip = nipecotic acid; BLeu = β-leucine; Mpa = O=C(O)CCS
Kindly apply the following: Fulfilled if EC50 Human APJ Receptor is less than 3 nM, Not fulfilled in every other case.

Strictly below 3 nM: is that where EC50 Human APJ Receptor of Palmitoyl-[γGlu][AEEA][AEEA][dQ]RP[NMeR][αMeL]SH[Dap]G[Oic][Nle][β3hP][Phe(4-Cl)]-OH [SEQ ID NO: 639] sits?
Not fulfilled

Hello, I'm reviewing records and need to know if EC50 Human APJ Receptor of Ac-QR[NMeR]LSHKGP[Nle]P[Phe(4-Cl)]-OH (SMILES CCCC[C@H](NC(=O)[C@@H]1CCCN1C(=O)CNC(=O)[C@H](CCCCN)NC(=O)[C@H](Cc1c[nH]cn1)NC(=O)[C@H](CO)NC(=O)[C@H](CC(C)C)NC(=O)[C@H](CCCNC(=N)N)N(C)C(=O)[C@H](CCCNC(=N)N)NC(=O)[C@H](CCC(N)=O)NC(C)=O)C(=O)N1CCC[C@H]1C(=O)N[C@@H](Cc1ccc(Cl)cc1)C(=O)O) [SEQ ID NO: 72] is below 3 nM. Could you check?
Fulfilled

Lab note: EC50 Human APJ Receptor threshold 3 nM. Does this binder come in strictly under it? Ac-RQRP[NMeR]LSHKGP[Nle]P[Phe(4-Cl)]-OH (SMILES CCCC[C@H](NC(=O)[C@@H]1CCCN1C(=O)CNC(=O)[C@H](CCCCN)NC(=O)[C@H](Cc1c[nH]cn1)NC(=O)[C@H](CO)NC(=O)[C@H](CC(C)C)NC(=O)[C@H](CCCNC(=N)N)N(C)C(=O)[C@@H]1CCCN1C(=O)[C@H](CCCNC(=N)N)NC(=O)[C@H](CCC(N)=O)NC(=O)[C@H](CCCNC(=N)N)NC(C)=O)C(=O)N1CCC[C@H]1C(=O)N[C@@H](Cc1ccc(Cl)cc1)C(=O)O) [SEQ ID NO: 65]
Fulfilled

Here's an entry: QRPRLSHKGPXPF ({H2}[MerPr](10K mPEG acetamide)QrP[hArg][aMeLeu]SHKGP[Nle]P[4-Cl-F]{COOH}) [SEQ ID NO: 119] . Is its EC50 Human APJ Receptor below 3 nM?
Not fulfilled

Hi there! Is EC50 Human APJ Receptor for QRPRXSHKGPXXF ({Acetyl-NH}qRP[NMeArg][Cha]SHKG[aMePro][Nle][Aib][4-Cl-F]{COOH}) [SEQ ID NO: 93] below 3 nM, do you know?
Fulfilled

Would you kindly verify if EC50 Human APJ Receptor of XXXQRPRLSHKGPXPF ({hexanoyl}[AC4Abu][Aeea][Aeea]QR[aMePro][hArg][aMeLeu]SHKGP[Nle]P[4-Cl-F]{COOH}) [SEQ ID NO: 560] is strictly less than 3 nM?
Fulfilled

Please check: EC50 Human APJ Receptor for Tridecanoyl-[γGlu][AEEA][AEEA][BLeu][hArg]P[NMeR][Cha]SHKG[Oic][Nle]P[dPhe(4-Cl)]-OH [SEQ ID NO: 298] , strictly under 3 nM or not?
Not fulfilled

Bench note: check whether Palmitoyl-[γGlu][AEEA][AEEA][dQ]RP[NMeR][αMeL]SH[Dab]G[Oic][Nle][β3hP][Phe(4-Cl)]-OH [SEQ ID NO: 638] shows EC50 Human APJ Receptor below 3 nM
Not fulfilled

Record Palmitoyl-[γGlu][AEEA][AEEA][dQ]RP[NMeR][Cha]SHKG[Oic][Nle][Nip][dPhe(4-Cl)]-OH [SEQ ID NO: 602] : is its EC50 Human APJ Receptor strictly below 3 nM?
Not fulfilled

Given the entry QRPRLSHKGPXPF ({H2}[MerPr](10K mPEG acetamide)Q[NMehArg]P[NMeArg][aMeLeu]SHKGP[Nle]P[4-Cl-F]{COOH}) [SEQ ID NO: 116] , would its reported EC50 Human APJ Receptor be below 3 nM?
Not fulfilled

Regarding Palmitoyl-[γGlu][AEEA][AEEA][dQ]RP[NMeR][αMeL]SH[Phe(4-F)]G[Oic][Nle][β3hP][Phe(4-Cl)]-OH [SEQ ID NO: 637] , kindly confirm whether its EC50 Human APJ Receptor is beneath 3 nM.
Not fulfilled

Say whether its EC50 Human APJ Receptor is strictly beneath 3 nM. Entry: XXXQRPRLSHKGPXPF ({HexDDA}[AC4Abu][Aeea][Aeea]QRP[NMeArg]LSHKGP[Nle]P[4-Cl-F]{COOH}) [SEQ ID NO: 512]
Fulfilled

I wonder whether Palmitoyl-[AC4Abu][AEEA][AEEA][dQ]RP[NMeR][Cha]SHKG[Pip][Nle][β3hF]-OH (SMILES CCCCCCCCCCCCCCCC(=O)NCCC(C(=O)O)C(=O)NCCOCCOCC(=O)NCCOCCOCC(=O)N[C@H](CCC(N)=O)C(=O)N[C@@H](CCCNC(=N)N)C(=O)N1CCC[C@H]1C(=O)N(C)[C@@H](CCCNC(=N)N)C(=O)N[C@@H](CC1CCCCC1)C(=O)N[C@@H](CO)C(=O)N[C@@H](Cc1c[nH]cn1)C(=O)N[C@@H](CCCCN)C(=O)NCC(=O)N1CCCC[C@H]1C(=O)N[C@@H](CCCC)C(=O)N[C@H](CC(=O)O)Cc1ccccc1) [SEQ ID NO: 579] has EC50 Human APJ Receptor below 3 nM. Can you tell?
Fulfilled

Say whether its EC50 Human APJ Receptor is strictly beneath 3 nM. Entry: Ac-RQRPR[Cha]SHKGP[Nle]P[Phe(4-Cl)]-OH (SMILES CCCC[C@H](NC(=O)[C@@H]1CCCN1C(=O)CNC(=O)[C@H](CCCCN)NC(=O)[C@H](Cc1c[nH]cn1)NC(=O)[C@H](CO)NC(=O)[C@H](CC1CCCCC1)NC(=O)[C@H](CCCNC(=N)N)NC(=O)[C@@H]1CCCN1C(=O)[C@H](CCCNC(=N)N)NC(=O)[C@H](CCC(N)=O)NC(=O)[C@H](CCCNC(=N)N)NC(C)=O)C(=O)N1CCC[C@H]1C(=O)N[C@@H](Cc1ccc(Cl)cc1)C(=O)O) [SEQ ID NO: 63]
Fulfilled

Lab log: compare recorded EC50 Human APJ Receptor with 3 nM; is it strictly lower for {mPEG 10 kDa acetamide}-[Mpa][dQ][hArg]P[NMeR][Cha]SHKG[Oic][Nle]P[dPhe(4-Cl)]-OH (numbers in words are those of the source; also: N-terminus written {H2}) [SEQ ID NO: 111] ?
Not fulfilled

Criterion: EC50 Human APJ Receptor strictly below 3 nM. Is it met by XXXQRPRLSHKGPXPF ({HDA}[AC4Abu][Aeea][Aeea]QRP[NMeArg]LSHKGP[Nle]P[4-Cl-F]{COOH}) [SEQ ID NO: 496] ?
Fulfilled
